- TEST DESCRIPTION: Quantitative High-Throughput drug screen in 47 multiple myeloma cell lines against the NCATS MIPE library collection: JJN3_DSMZ cell viability assay (AID 1918966; also: nearly all actives have a fitted effect of over 50% in size)
- CONDITION LABEL: JJN3 myeloma cells viability, CellTiter-Glo ATP, 48 h; series mostly up to 45.8 µM
Records with an inconclusive call do not appear. Activity calls are given as the source filed them. Calls follow the shape of the dose curve; as a rule, active = well fitted cell-killing curve with a large enough effect; inconclusive = small, poorly fitted or top-dose-only effect, or effect the other way; inactive = no such curve, though single readings can be large or run the other way.
Classes to choose from: active, inactive

Known results for compounds:
| COMPOUND | LABEL |
| --- | --- |
| N=c1c2c(-c3ccccc3)c(-c3ccccc3)n(Cc3ccccc3)c2ncn1C1CCC(O)CC1 (centres undefined) | active |
| C[C@@]12OC(=O)[C@]1([C@@H](O)[C@@H]1C=CCCC1)NC(=O)[C@H]2CCCl | active |
| CC(C)N[C@@H]1CCn2c(=O)[nH]c3cccc(c32)[C@@H]1O | active |

IN: Entry N#C[C@H](O[C@@H]1O[C@H](CO[C@@H]2O[C@H](CO)[C@H](O)[C@H](O)[C@H]2O)[C@H](O)[C@H](O)[C@H]1O)c1ccccc1 : call = ?
OUT: active

IN: Entry CC[C@@]1(O)C(=O)OCc2c1cc1n(c2=O)Cc2cc3ccccc3nc2-1 : call = ?
OUT: active
